Data provenance: patent US20260151494A1

- target.desc: T1, apical domain of human CD71 (human, UniProt P02786 189-383, limits assumed)
- T1 construct: domain: apical domain; Screen 4 panned on human apical domains, the ELISA text says only 'apical domain'
- assay.method.text: primary ELISA; also: test concentration or dose not given here
parameter: RLU (RLU)

1) CD71-binding FN3 domain of SEQ ID NO: 499 (designed binder) MLPAPKNLVVSRVTEDSARLSWTAPDAAFDSFFIGYLEPQPPGEAISLYVPGSERSYDLTGLKPGTEYNVTIQGVKGGFPSSPLFADFTT :: 3.13e+06
2) CD71-binding FN3 domain of SEQ ID NO: 538 (designed binder) MLPAPKNLVVSRVTEDSARLSWTAPDAAFDSFFIGYLEPQPPGEAIDLYVPGSERSYDLTGLKPGTEYNVTIQGVKGGFPSHPLVAVFTT :: 4.93e+06
3) CD71-binding FN3 domain of SEQ ID NO: 453 (designed binder) MLPAPKNLVVSRVTEDSARLSWTAQDAAFDSFFIGYLEPQPPGEAIALLVPGSERSYDLTGLKPGTEYNVTIQGVKGGFPSHPLSASFTT :: 5.12e+06
4) CD71-binding FN3 domain of SEQ ID NO: 545 (designed binder) MLPAPKNLVVSRVTEDSARLSWTAPDAAFDSFFIGYLEPQPPGEAISLVVPGSERSYDLTGLKPGTEYNVTIQGVKGGFPSNPLIATFTT :: 4.22e+06
5) CD71-binding FN3 domain of SEQ ID NO: 454 (designed binder) MLPAPKNLVVSRVTEDSARLSWTAPDAAFDSFFIGYLEPQPPGEAINLTVPGSERSYDLTGLKPGTEYNVTIQGVKGGFPSYPLQASFTT :: 4.2e+06

a: CD71-binding FN3 domain of SEQ ID NO: 448 (designed binder) MLPAPKNLVVSRVTEDSARLSWTAPDAAFDSFFIGYLEPQPPGEAIDLYVPGSERSYDLTGLKPGTEYNVTIQGVKGGFPSMPLYARFTT
b: CD71-binding FN3 domain of SEQ ID NO: 462 (designed binder) MLPAPKNLVVSRVTEDSARLSWTAPDAAFDSFFIGYLEPQPPGEAIHLQVPGSERSYDLTGLKPGTEYNVTIQGVKGGFPSVPLHARFTT
IN: Response body: label of entry with the larger RLU; valid values a , b . Mark your selection by writing its label.
OUT: a
